target: huPrP(23–230) (Homo sapiens); type: binding; settings: binding site C; Kapp = 1/k2 + k3/k2; 293 K; read-out: Kapp Xe (apparent xenon dissociation constant)
recordedEndpoint: Kd (mM)
One number for each entry, in mM.

IN: // Kd lookup, key: "[Xe]"
OUT: 11.4

====

biological target: huPrP(23–230) (Homo sapiens); type: binding; details: order of magnitude, over all cavities; read-out: apparent dissociation constants
pKd: −log10 of the molar value.
recordedEndpoint: pKd

IN: // pKd lookup, key: [Xe] [xenon]
OUT: ~2.00

====

biological target: huPrP(23–230) (Homo sapiens, UniProt P04156); assay type: binding; conditions: binding site A1; Kapp = 1/k2 + k3/k2; 293 K; read-out: Kapp Xe (apparent xenon dissociation constant)
recordedEndpoint: Kd (mM)
Give bare numbers, in mM.

IN: // Kd lookup, key: "[Xe]"
OUT: 12.5

Recorded values, source paper PMC4920026.
